System: 324938-238-R-J1-PDC complex spheroid viability
Assay: Anticancer human tumor 324938-238-R-J1-PDC patient-derived bladder carcinoma cell line growth inhibition
Conditions: second compound 10 µM; first compound 0.1 µM; stronger effect = lower value
Sorting guide: entries reporting viability, T/C beneath 30% go in the True pile, the rest go in the False pile.

Dear reviewer, please state whether CC(C)CC(NC(=O)C(Cc1ccccc1)NC(=O)c1cnccn1)B(O)O (centres undefined) + NC1CC1c1ccc(-c2cccc(O)c2)cc1 has viability, T/C strictly beneath 30%.
True

Criterion: viability, T/C strictly below 30%. Is it met by CC1(C)CCC(CN2CCN(c3ccc(C(=O)NS(=O)(=O)c4ccc(NCC5CCOCC5)c([N+](=O)[O-])c4)c(Oc4cnc5[nH]ccc5c4)c3)CC2)=C(c2ccc(Cl)cc2)C1 + NC1CC1c1ccc(-c2cccc(O)c2)cc1 ?
False

Threshold test, viability, T/C < 30%: COc1cc(Nc2ncc3c(n2)-c2ccc(Cl)cc2C(c2c(F)cccc2OC)=NC3)ccc1C(=O)O + NC1CCC(NC2CC2c2ccccc2)CC1
False

Record CC1COCCN1c1cc(C2(S(C)(=N)=O)CC2)nc(-c2ccnc3[nH]ccc23)n1 (centres undefined) + NC1CCC(NC2CC2c2ccccc2)CC1 : is its viability, T/C strictly below 30%?
False

Does the reported viability, T/C of CC[C@@]1(O)C(=O)OCc2c1cc1n(c2=O)Cc2cc3c(CN(C)C)c(O)ccc3nc2-1 + NC1CCC(NC2CC2c2ccccc2)CC1 stay below 30%?
True

A record lists CC[C@@]1(O)C(=O)OCc2c1cc1n(c2=O)Cc2cc3c(CN(C)C)c(O)ccc3nc2-1 + NC1CC1c1ccc(-c2cccc(O)c2)cc1 . Is its viability, T/C below 30%?
True

Decide: viability, T/C of COc1cc(Nc2ncc3c(n2)-c2ccc(Cl)cc2C(c2c(F)cccc2OC)=NC3)ccc1C(=O)O + NC1CC1c1ccc(-c2cccc(O)c2)cc1 strictly below 30%?
True

Problem: For the compound Cn1ncnc1C1c2n[nH]c(=O)c3cc(F)cc(c23)NC1c1ccc(F)cc1 (centres undefined) + NC1CC1c1ccc(-c2cccc(O)c2)cc1 , is viability, T/C under 30%?
False

Further cases:
# strict comparison: is reported viability, T/C < 30%? input = CC1COCCN1c1cc(C2(S(C)(=N)=O)CC2)nc(-c2ccnc3[nH]ccc23)n1 (centres undefined) + NC1CC1c1ccc(-c2cccc(O)c2)cc1
False

viability, T/C strictly < 30% for this compound? CC(C)CC(NC(=O)C(Cc1ccccc1)NC(=O)c1cnccn1)B(O)O (centres undefined) + NC1CCC(NC2CC2c2ccccc2)CC1
True

Please check: viability, T/C for CC(C)c1c(-c2ccccc2)nc2c(C#N)c[nH]n2c1=O + NC1CCC(NC2CC2c2ccccc2)CC1 , strictly under 30% or not?
False

Does the reported viability, T/C of Cn1ncnc1C1c2n[nH]c(=O)c3cc(F)cc(c23)NC1c1ccc(F)cc1 (centres undefined) + NC1CCC(NC2CC2c2ccccc2)CC1 stay below 30%?
False

Confirm or reject: viability, T/C of CC(C)CC(NC(=O)CNC(=O)c1cc(Cl)ccc1Cl)B1OC(=O)CC(CC(=O)O)(C(=O)O)O1 (centres undefined) + NC1CCC(NC2CC2c2ccccc2)CC1 lies strictly below 30%
True

Identify whether the compound COc1ccc([C@@H](O)c2cc(-c3ncnc4cc(N5CCOCC5)ccc34)c(F)cc2Cl)nn1 + NC1CC1c1ccc(-c2cccc(O)c2)cc1 records viability, T/C below 30%.
False

====

// values below are reported viability, T/C
System: 324938-238-R-J1-PDC complex spheroid viability
Assay: Anticancer human tumor 324938-238-R-J1-PDC cell line growth inhibition;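 further: spheroids also contain HUVEC and human MSCs and agents combined with iadademstat; spheroids exposed to agents for 7 days before readout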
Details: second compound 10 µM; first compound 0.001 µM; stronger effect = lower value
Number only, in %; omit the unit.

What measured viability, T/C goes with CC[C@@]1(O)C(=O)OCc2c1cc1n(c2=O)Cc2cc3c(CN(C)C)c(O)ccc3nc2-1 + NC1CC1c1ccc(-c2cccc(O)c2)cc1 ?
52.7

Any idea what viability, T/C was measured for CC(C)CC(NC(=O)C(Cc1ccccc1)NC(=O)c1cnccn1)B(O)O (centres undefined) + NC1CCC(NC2CC2c2ccccc2)CC1 ?
10.8

Return reported viability, T/C; argument: CC(C)CC(NC(=O)CNC(=O)c1cc(Cl)ccc1Cl)B1OC(=O)CC(CC(=O)O)(C(=O)O)O1 (centres undefined) + NC1CC1c1ccc(-c2cccc(O)c2)cc1
54.7

Consider the additional compound presented here.
Recorded viability, T/C for CC(C)CC(NC(=O)CNC(=O)c1cc(Cl)ccc1Cl)B1OC(=O)CC(CC(=O)O)(C(=O)O)O1 (centres undefined) + NC1CCC(NC2CC2c2ccccc2)CC1 , please?
76.2

====

In this section, each of the molecules is paired with its reported IC50.
Test system: 324938-238-R-J1-PDC complex spheroid viability
Assay: Anticancer human tumor 324938-238-R-J1-PDC cell line growth inhibition;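 further: spheroids also contain HUVEC and human MSCs and agents combined with iadademstat; spheroids exposed to agents for 7 days before readout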
Conditions: curve of first compound; second compound 0.316 µM
Field format: number, assumed nM, no unit text.

Before answering, review these 3 worked examples.
Look at this molecule and give its reported IC50. CC1COCCN1c1cc(C2(S(C)(=N)=O)CC2)nc(-c2ccnc3[nH]ccc23)n1 (configuration not stated) + NC1CC1c1ccc(-c2cccc(O)c2)cc1
301

Report IC50 for O=C(c1cc(Cc2n[nH]c(=O)c3ccccc23)ccc1F)N1CCN(C(=O)C2CC2)CC1 + NC1CCC(NC2CC2c2ccccc2)CC1 please.
2760

Any idea what its IC50 is? The molecule is COc1ccc([C@@H](O)c2cc(-c3ncnc4cc(N5CCOCC5)ccc34)c(F)cc2Cl)nn1 + NC1CCC(NC2CC2c2ccccc2)CC1
1870

// switching to the query molecule
Sample COc1cc(C2c3cc4c(cc3C(OC3OC5COC(C)OC5C(O)C3O)C3COC(=O)C23)OCO4)cc(OC)c1O (configuration not stated) + NC1CCC(NC2CC2c2ccccc2)CC1 — what was its IC50?
54.8

====

Test system: 324938-238-R-J1-PDC complex spheroid viability
Test: Anticancer human tumor 324938-238-R-J1-PDC cell line growth inhibition;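 further: spheroids also contain HUVEC and human MSCs and agents combined with iadademstat; spheroids exposed to agents for 7 days before readout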
Settings: second compound 3.16 µM; first compound 0.000316 µM; stronger effect = lower value
parameter-measured: viability, T/C (%)
# value in %; strip the unit string

Example results:
Item CC[C@@]1(O)C(=O)OCc2c1cc1n(c2=O)Cc2cc3c(CN(C)C)c(O)ccc3nc2-1 + NC1CC1c1ccc(-c2cccc(O)c2)cc1 has what recorded viability, T/C?
69.7

Given CC(C)CC(NC(=O)C(Cc1ccccc1)NC(=O)c1cnccn1)B(O)O (stereo not drawn) + NC1CC1c1ccc(-c2cccc(O)c2)cc1 , state its recorded viability, T/C.
59.2

May I ask what viability, T/C has been recorded for CC(C)CC(NC(=O)CNC(=O)c1cc(Cl)ccc1Cl)B1OC(=O)CC(CC(=O)O)(C(=O)O)O1 (stereo not drawn) + NC1CC1c1ccc(-c2cccc(O)c2)cc1 ?
77.5

Would you kindly share the measured viability, T/C for Cn1ncnc1C1c2n[nH]c(=O)c3cc(F)cc(c23)NC1c1ccc(F)cc1 (stereo not drawn) + NC1CC1c1ccc(-c2cccc(O)c2)cc1 ?
76.1

Any idea what viability, T/C was measured for CC(C)CC(NC(=O)CNC(=O)c1cc(Cl)ccc1Cl)B1OC(=O)CC(CC(=O)O)(C(=O)O)O1 (stereo not drawn) + NC1CCC(NC2CC2c2ccccc2)CC1 ?
80.2

***
Could you share which viability, T/C value was measured for Cn1ncnc1C1c2n[nH]c(=O)c3cc(F)cc(c23)NC1c1ccc(F)cc1 (stereo not drawn) + NC1CCC(NC2CC2c2ccccc2)CC1 ?
68.1

Given the entry CC(C)CC(NC(=O)C(Cc1ccccc1)NC(=O)c1cnccn1)B(O)O (stereo not drawn) + NC1CCC(NC2CC2c2ccccc2)CC1 , report its measured viability, T/C.
65

Form field: reported viability, T/C of CC[C@@]1(O)C(=O)OCc2c1cc1n(c2=O)Cc2cc3c(CN(C)C)c(O)ccc3nc2-1 + NC1CCC(NC2CC2c2ccccc2)CC1
74.5

====

System: 324938-238-R-J1-PDC complex spheroid viability
Test: Anticancer human tumor 324938-238-R-J1-PDC cell line growth inhibition;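 further: spheroids also contain HUVEC and human MSCs and agents combined with iadademstat; spheroids exposed to agents for 7 days before readout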
Conditions: second compound 0.316 µM; first compound 0.000316 µM; stronger effect = lower value
parameter-measured: viability, T/C (%)
Write the answer as a number in %, unit excluded.

Name the reported viability, T/C value associated with the compound CC[C@@]1(O)C(=O)OCc2c1cc1n(c2=O)Cc2cc3c(CN(C)C)c(O)ccc3nc2-1 + NC1CCC(NC2CC2c2ccccc2)CC1
82.5

Which value of viability, T/C has been reported for Cn1ncnc1C1c2n[nH]c(=O)c3cc(F)cc(c23)NC1c1ccc(F)cc1 (stereo not drawn) + NC1CCC(NC2CC2c2ccccc2)CC1 in the records?
95

Would you mind telling me what viability, T/C value was observed for CC[C@@]1(O)C(=O)OCc2c1cc1n(c2=O)Cc2cc3c(CN(C)C)c(O)ccc3nc2-1 + NC1CC1c1ccc(-c2cccc(O)c2)cc1 ?
68.2

Sample CC(C)CC(NC(=O)CNC(=O)c1cc(Cl)ccc1Cl)B1OC(=O)CC(CC(=O)O)(C(=O)O)O1 (stereo not drawn) + NC1CCC(NC2CC2c2ccccc2)CC1 — what was its viability, T/C?
88.5

What measured viability, T/C goes with CC(C)CC(NC(=O)CNC(=O)c1cc(Cl)ccc1Cl)B1OC(=O)CC(CC(=O)O)(C(=O)O)O1 (stereo not drawn) + NC1CC1c1ccc(-c2cccc(O)c2)cc1 ?
73

New cases:
Tell me the measured viability, T/C of CC(C)CC(NC(=O)C(Cc1ccccc1)NC(=O)c1cnccn1)B(O)O (stereo not drawn) + NC1CCC(NC2CC2c2ccccc2)CC1 , please.
64.9

What value of viability, T/C has been reported for the following compound? Cn1ncnc1C1c2n[nH]c(=O)c3cc(F)cc(c23)NC1c1ccc(F)cc1 (stereo not drawn) + NC1CC1c1ccc(-c2cccc(O)c2)cc1
88.3

# input compound: CC(C)CC(NC(=O)C(Cc1ccccc1)NC(=O)c1cnccn1)B(O)O (stereo not drawn) + NC1CC1c1ccc(-c2cccc(O)c2)cc1 ; wanted: its viability, T/C
62

Where do the numbers come from? From PubChem BioAssay AID1918935.
